Sourced from PubChem BioAssay (NCI)

# Test system: OVCAR-4 ovarian
# assay notes: NCI tumour cell line growth inhibition, 48 h

# compound, GI50
data = [
    ("O=c1nc2oc3ccc4ccccc4c3cc-2s1", "58.4 µM"),
    ("NC(=S)N/N=C/c1ncccc1N", "3.57 µM"),
    ("COc1ccc(C2SC(C)C(=O)N2NC(=O)C(O)c2ccccc2)cc1OC (stereo not drawn)", "> 100 µM"),
    ("C1CN(SSN2CCOCC2)CCO1", "39.6 µM"),
    ("Cc1ccc(S(=O)(=O)Nc2cccc3[nH]c(C(F)(F)F)nc23)cc1", "1.54 µM"),
    ("CN1CC[C@@H](c2c(O)cc(O)c3c(=O)cc(-c4ccccc4Cl)oc23)[C@@H]1CO", "0.709 µM"),
    ("COc1ccc2c(c1)C(=O)c1c-2c(N(C)C)nc2ccccc12", "90.2 µM"),
    ("CN(C)c1ccc2c(c1)OC(N)=C(C#N)C2c1ccc2c(c1)CCO2 (stereo not drawn)", "0.704 µM"),
]
